- Tested on: rodent lifetime carcinogenesis bioassay, tumor incidence TD50
- Protocol Notes: carcinogenic potency in animals, long-term in vivo studies, CPDB compilation (AID 1745844)
- Particulars: mouse; strain B6C3F1; males; inhaled; site: liver; lesion: hepatoblastoma; dosed 104 weeks; study length 104 weeks
Observable: TD50

*Q* So what does the record say about TD50 for CC(O)COC(C)(C)C (stereo unspecified) ?
*A* 9320 mg/kg/day

* * *

- Test system: rodent lifetime carcinogenesis bioassay, tumor incidence TD50
- Protocol Notes: carcinogenic potency in animals, long-term in vivo studies, CPDB compilation (AID 1745844)
- Particulars: rat; strain Wistar; females; in feed; site: liver; lesion: hemangioendothelioma; dosed 104 weeks; study length 104 weeks
Calls of active or inactive are those of the source. How the calls were made is not given here.
Observable: TD50

*Q* For the record CCOC(=O)C1OC1(C)c1ccccc1 (stereo unspecified) , what value of TD50 is listed for rodent lifetime carcinogenesis bioassay, tumor incidence TD50?
*A* 9360 mg/kg/day (inactive)

* * *

- Test system: rodent lifetime carcinogenesis bioassay, tumor incidence TD50
- Protocol Notes: carcinogenic potency in animals, long-term in vivo studies, CPDB compilation (AID 1745844)
- Particulars: mouse; strain B6C3F1; males; in feed; site: lung; lesion: alveolar/bronchiolar adenoma + alveolar/bronchiolar carcinoma; dosed 80 weeks; study length 89 weeks
Observable: TD50 (mg/kg/day)
Reply with just the number (in mg/kg/day).

*Q* Find the recorded TD50 belonging to O=C1C2(Cl)C3(Cl)C4(Cl)C(Cl)(Cl)C5(Cl)C3(Cl)C1(Cl)C5(Cl)C24Cl (stereo unspecified) and report it.
*A* 29.3

* * *

- System: rodent lifetime carcinogenesis bioassay, tumor incidence TD50
- Protocol Notes: carcinogenic potency in animals, long-term in vivo studies, CPDB compilation (AID 1745844)
- Particulars: mouse; strain B6C3F1; females; by gavage; site: liver; lesion: several types; types named in the paper; dosed 104 weeks; study length 107 weeks
Observable: TD50 (mg/kg/day)
A number alone suffices; assume mg/kg/day.

*Q* What is its TD50 for rodent lifetime carcinogenesis bioassay, tumor incidence TD50? Entry: c1ccc(C2CO2)cc1 (stereo unspecified)
*A* 5960

* * *

- Test system: rodent lifetime carcinogenesis bioassay, tumor incidence TD50
- Protocol Notes: carcinogenic potency in animals, long-term in vivo studies, CPDB compilation (AID 1745844)
- Particulars: rat; strain MRC-Wistar; females; in drinking water; site: liver; lesion: several types; types named in the paper; dosed 78 weeks; study length 130 weeks
Activity calls are given as the source filed them. How the calls were made is not given here.
Observable: TD50

*Q* Fill in the recorded TD50 for this compound, with rodent lifetime carcinogenesis bioassay, tumor incidence TD50 as test system: CC(C)=NO
*A* 127 mg/kg/day (inactive)

* * *

- Tested on: rodent lifetime carcinogenesis bioassay, tumor incidence TD50
- Protocol Notes: carcinogenic potency in animals, long-term in vivo studies, CPDB compilation (AID 1745844)
- Particulars: hamster; strain Syrian Golden; males; by gavage; site: liver; lesion: angiosarcoma; dosed 46 weeks; study length 69 weeks
Observable: TD50 (mg/kg/day)
Number in mg/kg/day, nothing else.

*Q* What value of TD50 has been recorded for this entry: CC1CN(N=O)CC(C)N1C (stereo unspecified)
*A* 6.18

* * *

- Tested on: rodent lifetime carcinogenesis bioassay, tumor incidence TD50
- Protocol Notes: carcinogenic potency in animals, long-term in vivo studies, CPDB compilation (AID 1745844)
- Particulars: mouse; strain B6C3F1; males; inhaled; site: liver; lesion: hepatocellular adenoma; dosed 52 weeks; study length 104 weeks
Observable: TD50

*Q* Could you tell me which TD50 is on file for C=CC=C ?
*A* 15.8 mg/kg/day

* * *

- Test system: rodent lifetime carcinogenesis bioassay, tumor incidence TD50
- Protocol Notes: carcinogenic potency in animals, long-term in vivo studies, CPDB compilation (AID 1745844)
- Particulars: hamster; strain Syrian Golden; males; in drinking water; site: cecum; lesion: polypoid adenoma; dosed 71 weeks; study length 71 weeks
Observable: TD50

*Q* Which TD50 is listed for CNNC ?
*A* 2.42 mg/kg/day

* * *

- Test system: rodent lifetime carcinogenesis bioassay, tumor incidence TD50
- Protocol Notes: carcinogenic potency in animals, long-term in vivo studies, CPDB compilation (AID 1745844)
- Particulars: rat; strain Fischer 344; males; in feed; site: forestomach; lesion: squamous-cell papilloma; dosed 12 weeks; study length 103 weeks
Observable: TD50

*Q* Return reported TD50; argument: OCC(CO)(CBr)CBr
*A* 217 mg/kg/day

* * *

- Tested on: rodent lifetime carcinogenesis bioassay, tumor incidence TD50
- Protocol Notes: carcinogenic potency in animals, long-term in vivo studies, CPDB compilation (AID 1745844)
- Particulars: rat; strain Wistar-random; females; in feed; site: urinary bladder; lesion: transitional-cell carcinoma; dosed 130 weeks; study length 130 weeks
Observable: TD50

*Q* Param item = O=C(O)O ; retrieve measured TD50.
*A* 37100 mg/kg/day

* * *

- System: rodent lifetime carcinogenesis bioassay, tumor incidence TD50
- Protocol Notes: carcinogenic potency in animals, long-term in vivo studies, CPDB compilation (AID 1745844)
- Particulars: mouse; strain B6C3F1; males; by gavage; site: any site (literature study); lesion: several types; types named in the paper; dosed 52 weeks; study length 83 weeks
Observable: TD50
Put down the number, then write its unit next to it.

*Q* Look up TD50 for this molecule: C[C@]12CC[C@@H]3c4ccc(OC(=O)Cc5ccc(N(CCCl)CCCl)cc5)cc4CC[C@H]3[C@@H]1CC[C@@H]2OC(=O)Cc1ccc(N(CCCl)CCCl)cc1
*A* 1.96 mg/kg/day

* * *

- System: rodent lifetime carcinogenesis bioassay, tumor incidence TD50
- Protocol Notes: carcinogenic potency in animals, long-term in vivo studies, CPDB compilation (AID 1745844)
- Particulars: mouse; strain Swiss albino; females; in drinking water; site: fat; lesion: angiosarcoma; dosed 93 weeks; study length 93 weeks
Observable: TD50 (mg/kg/day)
Lab book: enter the figure in mg/kg/day, no units written.

*Q* Form field: reported TD50 of NNCCc1ccccc1
*A* 23.7

* * *

- Tested on: rodent lifetime carcinogenesis bioassay, tumor incidence TD50
- Protocol Notes: carcinogenic potency in animals, long-term in vivo studies, CPDB compilation (AID 1745844)
- Particulars: mouse; strain Swiss; females; in drinking water; site: lung; lesion: several types; types named in the paper; dosed 62 weeks; study length 62 weeks
Observable: TD50

*Q* I would be grateful if you could share the reported TD50 for CNN .
*A* 21.4 mg/kg/day

* * *

- System: rodent lifetime carcinogenesis bioassay, tumor incidence TD50
- Protocol Notes: carcinogenic potency in animals, long-term in vivo studies, CPDB compilation (AID 1745844)
- Particulars: mouse; strain B6C3F1; females; inhaled; site: liver; lesion: hepatocellular adenoma + hepatocellular carcinoma + neoplastic nodule; dosed 83 weeks; study length 104 weeks
Observable: TD50 (mg/kg/day)
Note: unit mg/kg/day is implicit; provide only the numeric part.

*Q* Value lookup for TD50; key = C=CC=C
*A* 22.8

* * *

- System: rodent lifetime carcinogenesis bioassay, tumor incidence TD50
- Protocol Notes: carcinogenic potency in animals, long-term in vivo studies, CPDB compilation (AID 1745844)
- Particulars: rat; strain Fischer 344; males; in drinking water; site: forestomach; lesion: basal-cell carcinoma; dosed 32 weeks; study length 127 weeks
Observable: TD50

*Q* Under rodent lifetime carcinogenesis bioassay, tumor incidence TD50: TD50 value of CN(CCc1ccccc1)N=O ?
*A* 2.57 mg/kg/day

* * *

- Tested on: rodent lifetime carcinogenesis bioassay, tumor incidence TD50
- Protocol Notes: carcinogenic potency in animals, long-term in vivo studies, CPDB compilation (AID 1745844)
- Particulars: mouse; strain B6C3F1; males; by gavage; site: forestomach; lesion: squamous-cell papilloma; dosed 102 weeks; study length 103 weeks
Observable: TD50

*Q* # get_value(readout='TD50', item= CC(C)=CCl )
*A* 195 mg/kg/day

* * *

- Test system: rodent lifetime carcinogenesis bioassay, tumor incidence TD50
- Protocol Notes: carcinogenic potency in animals, long-term in vivo studies, CPDB compilation (AID 1745844)
- Particulars: rat; strain Fischer 344; females; in drinking water; site: Zymbal's gland; lesion: adenoma + adenoma, bilateral; dosed 60 weeks; study length 60 weeks
Observable: TD50 (mg/kg/day)
The response must be a number in mg/kg/day with no trailing unit.

*Q* So what's the measured TD50 for this one? Cc1cc(-c2ccc(N)c(C)c2)ccc1N
*A* 3.08

* * *

- System: rodent lifetime carcinogenesis bioassay, tumor incidence TD50
- Protocol Notes: carcinogenic potency in animals, long-term in vivo studies, CPDB compilation (AID 1745844)
- Particulars: rat; strain Sprague-Dawley; males; in drinking water; site: pancreas; lesion: several types; types named in the paper; dosed 104 weeks; study length 120 weeks
Observable: TD50 (mg/kg/day)
Output spec: scalar in mg/kg/day, unitless text.

*Q* Param readout= TD50; system= rodent lifetime carcinogenesis bioassay, tumor incidence TD50; entry= CCO ; returns value.
*A* 33200

* * *

- Tested on: rodent lifetime carcinogenesis bioassay, tumor incidence TD50
- Protocol Notes: carcinogenic potency in animals, long-term in vivo studies, CPDB compilation (AID 1745844)
- Particulars: rat; strain ACI; males; by gavage; site: liver; lesion: hepatocellular adenoma + hepatocellular carcinoma + neoplastic nodule; dosed 103 weeks; study length 104 weeks
Observable: TD50 (mg/kg/day)
Kindly answer with a numeric value in mg/kg/day, unit omitted.

*Q* What value of TD50 has been reported for the following compound? ClC=C(Cl)Cl
*A* 9400
